Source: the supplement of paper PMC10567573

B1: CPOX (parent)
chain: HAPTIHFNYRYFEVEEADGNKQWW

- Variants of: B1
- assayInfo: protein stability index of a GFP-peptide fusion (GPS, HEK-293T) (PSI 1-6); higher = more stable;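 also: lentivirally expressed fusions sorted by FACS into six bins by GFP to DsRed ratio, PSI derived from sequencing read proportions per bin multiplied by bin number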
- assayConditions: c terminus: a fixed tail appended
quantityName: protein stability index
Give only the figure.

mutationSpec	protein stability index
F12P	3.12
K21V	2.1

*Q* For N20A , what is its reported protein stability index?
*A* 1.76

*Q* For E15W , what is its reported protein stability index?
*A* 2.4
